testedOn: nematode Haemonchus contortus PgpA (HcPgpA) (Haemonchus contortus)
Sequence (O61301 entry or part of it): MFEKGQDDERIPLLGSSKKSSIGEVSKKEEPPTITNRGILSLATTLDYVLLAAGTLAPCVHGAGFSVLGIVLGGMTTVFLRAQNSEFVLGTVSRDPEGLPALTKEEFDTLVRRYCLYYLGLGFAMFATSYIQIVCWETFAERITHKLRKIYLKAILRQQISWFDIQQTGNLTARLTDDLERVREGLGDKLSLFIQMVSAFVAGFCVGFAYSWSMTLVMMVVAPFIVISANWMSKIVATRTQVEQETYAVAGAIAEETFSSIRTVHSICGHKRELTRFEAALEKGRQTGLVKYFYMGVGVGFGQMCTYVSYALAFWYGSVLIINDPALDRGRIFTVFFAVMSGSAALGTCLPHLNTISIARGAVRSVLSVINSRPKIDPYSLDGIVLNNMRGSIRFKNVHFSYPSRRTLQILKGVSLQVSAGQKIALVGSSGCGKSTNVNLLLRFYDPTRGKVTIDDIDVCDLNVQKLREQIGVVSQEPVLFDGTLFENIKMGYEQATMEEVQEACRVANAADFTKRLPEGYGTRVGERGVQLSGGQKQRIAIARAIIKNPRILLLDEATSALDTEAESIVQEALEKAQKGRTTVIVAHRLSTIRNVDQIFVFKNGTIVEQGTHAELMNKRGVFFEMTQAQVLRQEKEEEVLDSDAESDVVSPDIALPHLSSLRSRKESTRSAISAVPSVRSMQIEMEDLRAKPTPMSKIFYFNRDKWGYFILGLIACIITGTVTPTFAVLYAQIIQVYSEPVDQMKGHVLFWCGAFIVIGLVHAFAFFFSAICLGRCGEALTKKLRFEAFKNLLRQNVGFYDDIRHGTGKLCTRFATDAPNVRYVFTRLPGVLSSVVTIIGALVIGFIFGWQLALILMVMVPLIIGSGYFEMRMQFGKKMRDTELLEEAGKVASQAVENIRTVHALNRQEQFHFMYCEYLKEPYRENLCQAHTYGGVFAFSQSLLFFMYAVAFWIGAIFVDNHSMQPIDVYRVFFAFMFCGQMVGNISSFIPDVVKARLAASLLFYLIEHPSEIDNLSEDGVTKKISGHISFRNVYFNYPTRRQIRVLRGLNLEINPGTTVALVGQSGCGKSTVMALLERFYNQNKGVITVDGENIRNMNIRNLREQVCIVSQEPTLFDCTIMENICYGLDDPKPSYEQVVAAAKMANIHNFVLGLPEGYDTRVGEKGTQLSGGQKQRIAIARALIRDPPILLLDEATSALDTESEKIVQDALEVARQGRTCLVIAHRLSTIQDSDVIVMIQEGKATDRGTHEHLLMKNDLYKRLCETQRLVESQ
testDetails: Rhodamine 123 transport test in LLC-PK1-HcPgpA cells overexpressing nematode Pgp
testSettings: LLC-PK1-HcPgpA cells; read-out: EC50, concentration of half inhibitory effect, Nematode PgpA
readoutLabel: pEC50
Keep in mind that pEC50 stands for -log10 of concentration in molar terms.

Lookup: Tell me pEC50 reported for CCC(C)C1OC2(CCC1C)CC1CC(CC=C(C)C(O)C(C)C=CC=C3COC4C(O)C(C)=CC(C(=O)O1)C34O)O2 (stereo not shown) [Ivermectin aglycone, 22,23-dihydroavermectin B1 aglycone]
Found: 6.30

---

testedOn: murine Pgp (mdr1a) (Mus musculus)
Construct: expressed in transfected cells; host or cells: LLC-PK1 pig kidney epithelial cells (LLC-PK1-mdr1a), available in the INRA laboratory
Sequence (P21447 whole entry): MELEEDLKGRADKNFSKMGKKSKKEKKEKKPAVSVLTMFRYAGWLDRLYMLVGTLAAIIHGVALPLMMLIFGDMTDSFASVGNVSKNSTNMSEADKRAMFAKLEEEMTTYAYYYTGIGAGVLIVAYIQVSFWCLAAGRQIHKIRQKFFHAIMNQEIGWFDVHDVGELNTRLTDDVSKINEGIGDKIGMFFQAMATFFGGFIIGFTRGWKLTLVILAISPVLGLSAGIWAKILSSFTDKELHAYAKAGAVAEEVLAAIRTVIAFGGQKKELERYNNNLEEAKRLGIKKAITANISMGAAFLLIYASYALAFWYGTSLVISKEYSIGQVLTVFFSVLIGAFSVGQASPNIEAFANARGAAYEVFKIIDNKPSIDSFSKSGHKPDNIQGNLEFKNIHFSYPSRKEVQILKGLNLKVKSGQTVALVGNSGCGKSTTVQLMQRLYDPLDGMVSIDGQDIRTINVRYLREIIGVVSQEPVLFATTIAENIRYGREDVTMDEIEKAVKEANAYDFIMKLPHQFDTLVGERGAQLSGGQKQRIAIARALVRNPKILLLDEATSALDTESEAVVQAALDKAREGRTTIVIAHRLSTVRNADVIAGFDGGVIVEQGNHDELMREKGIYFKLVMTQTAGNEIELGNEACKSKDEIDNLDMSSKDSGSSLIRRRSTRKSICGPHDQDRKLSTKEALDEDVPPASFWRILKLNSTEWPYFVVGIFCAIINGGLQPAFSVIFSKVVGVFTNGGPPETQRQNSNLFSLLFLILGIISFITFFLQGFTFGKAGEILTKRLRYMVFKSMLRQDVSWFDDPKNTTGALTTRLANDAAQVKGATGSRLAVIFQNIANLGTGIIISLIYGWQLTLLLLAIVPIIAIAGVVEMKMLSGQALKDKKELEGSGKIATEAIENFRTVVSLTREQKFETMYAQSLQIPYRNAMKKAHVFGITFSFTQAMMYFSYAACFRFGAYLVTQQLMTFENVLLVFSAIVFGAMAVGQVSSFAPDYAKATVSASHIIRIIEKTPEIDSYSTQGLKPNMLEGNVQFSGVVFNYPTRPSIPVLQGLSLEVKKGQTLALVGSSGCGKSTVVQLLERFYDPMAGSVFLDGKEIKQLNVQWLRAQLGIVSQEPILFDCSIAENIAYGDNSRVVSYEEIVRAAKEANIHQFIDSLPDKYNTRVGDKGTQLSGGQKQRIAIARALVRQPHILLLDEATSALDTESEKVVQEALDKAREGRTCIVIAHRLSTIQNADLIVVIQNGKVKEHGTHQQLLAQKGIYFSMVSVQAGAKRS
testDetails: Rhodamine 123 transport test in LLC-PK1-mdr1a cells overexpressing murine Pgp
Format: cell-based
testSettings: Table 2; LLCPK1-mdr1a cells; read-out: EC50, concentration of half inhibitory effect, Murine Pgp
readoutLabel: EC50 (nM)
Give the number; nM is assumed, so skip it.

Lookup: Tell me EC50 reported for CCC(C)C1OC2(CCC1C)CC1CC(CC=C(C)C(O)C(C)C=CC=C3COC4C(O)C(C)=CC(C(=O)O1)C34O)O2 (stereo not shown) [Ivermectin aglycone, 22,23-dihydroavermectin B1 aglycone]
Found: 2500
